Values from patent US20200024330A1

So I've got a bunch of binders here, and I need their Fold IC50 increase relative to wild-type values.
EXPERIMENTAL_TARGET: HIV-1 JR-CSF Env T202A (HIV-1 JR-CSF) (UniProt P20871)
MEASUREMENT_NOTES: cell-based or functional assay
One number for each entry, in fold.

Hi there! I need Fold IC50 increase relative to wild-type for each item below, if you can.
1. PGT-127 (antibody, V domains shown) VH: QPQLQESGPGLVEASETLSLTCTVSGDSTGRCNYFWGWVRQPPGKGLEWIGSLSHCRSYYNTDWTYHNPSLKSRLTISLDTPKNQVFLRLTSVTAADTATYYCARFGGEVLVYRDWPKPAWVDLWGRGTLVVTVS VL: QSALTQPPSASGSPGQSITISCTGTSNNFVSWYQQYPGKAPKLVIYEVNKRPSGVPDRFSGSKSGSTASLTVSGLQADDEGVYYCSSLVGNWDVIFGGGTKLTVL
2. PGT-126 (antibody, V domains shown) VH: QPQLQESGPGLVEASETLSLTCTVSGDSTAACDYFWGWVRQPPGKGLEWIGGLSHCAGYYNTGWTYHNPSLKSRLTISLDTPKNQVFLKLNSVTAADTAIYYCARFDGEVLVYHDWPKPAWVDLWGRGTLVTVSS VL: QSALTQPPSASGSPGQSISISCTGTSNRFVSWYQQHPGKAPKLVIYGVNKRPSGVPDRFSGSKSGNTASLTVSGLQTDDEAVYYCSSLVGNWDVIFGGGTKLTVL
3. PGT-130 (antibody, V domains shown) VH: QVQLQESGPGLVKPAETLSLTCSVSGESINTGHYYWGWVRQVPGKGLEWIGHIHYTTAVLHNPSLKSRLTIKIYTLRNQITLRLSNVTAADTAVYHCVRSGGDILYYYEWQKPHWFSPWGPGIHVTVSS VL: QSALTQPPSASGSLGQSVTISCNGTSSDIGGWNFVSWYQQFPGRAPRLIIFEVNKRPSGVPGRFSGSKSGNSASLTVSGLQSDDEGQYFCSSLFGRWDVVFGGGTKLTVL

Data returned:
1. 1.8
2. 0.8
3. 1.2
